# testDescription: Solubility at pH 7.4
# Format: physicochemical
# experimentalConditions: buffer
parameterMeasured: solubility (µg/mL)

> print(dat)
                                givensmiles  val
1  COc1cc(F)c2[nH]c(-c3c(C)nn(C)c3C)c(/C=C3/Oc4ccc(NC(=O)Nc5ccc(C(=O)N(C)CCN(C)C)cc5)cc4C3=O)c2c1    1

---

The reader will find reported IC50 values listed item by item below.
# systemName: Phosphatidylinositol 4,5-bisphosphate 3-kinase catalytic subunit alpha isoform (Homo sapiens, UniProt P42336)
# Sequence (P42336 whole entry, canonical isoform): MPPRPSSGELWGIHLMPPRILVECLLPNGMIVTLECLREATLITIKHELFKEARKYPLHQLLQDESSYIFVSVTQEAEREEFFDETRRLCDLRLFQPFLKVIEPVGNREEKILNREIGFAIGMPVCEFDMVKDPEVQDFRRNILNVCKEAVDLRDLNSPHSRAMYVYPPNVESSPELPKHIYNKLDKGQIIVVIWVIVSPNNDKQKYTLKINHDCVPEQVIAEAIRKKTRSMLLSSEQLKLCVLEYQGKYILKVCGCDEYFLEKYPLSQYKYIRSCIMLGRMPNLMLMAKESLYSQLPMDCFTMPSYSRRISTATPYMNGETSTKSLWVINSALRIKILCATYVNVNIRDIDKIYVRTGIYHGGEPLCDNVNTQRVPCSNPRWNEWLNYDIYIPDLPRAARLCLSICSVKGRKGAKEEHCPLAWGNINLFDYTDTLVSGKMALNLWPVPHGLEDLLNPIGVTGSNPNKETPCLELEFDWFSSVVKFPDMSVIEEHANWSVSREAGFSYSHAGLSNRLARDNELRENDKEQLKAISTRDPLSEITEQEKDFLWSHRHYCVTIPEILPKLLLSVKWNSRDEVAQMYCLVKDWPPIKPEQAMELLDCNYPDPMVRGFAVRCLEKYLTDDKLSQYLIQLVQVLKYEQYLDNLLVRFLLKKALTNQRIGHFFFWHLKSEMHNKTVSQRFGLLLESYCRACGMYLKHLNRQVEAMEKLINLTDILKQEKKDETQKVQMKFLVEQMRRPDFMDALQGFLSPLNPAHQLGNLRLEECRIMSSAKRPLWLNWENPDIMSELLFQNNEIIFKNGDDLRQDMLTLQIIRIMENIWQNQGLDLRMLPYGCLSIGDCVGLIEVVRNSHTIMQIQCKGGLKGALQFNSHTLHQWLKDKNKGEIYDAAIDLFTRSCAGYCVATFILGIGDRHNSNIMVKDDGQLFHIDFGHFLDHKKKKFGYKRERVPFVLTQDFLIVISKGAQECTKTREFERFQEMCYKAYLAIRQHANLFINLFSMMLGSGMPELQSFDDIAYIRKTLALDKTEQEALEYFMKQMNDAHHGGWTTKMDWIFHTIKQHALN
# testDescription: Inhibition of PI3Kalpha
parameterMeasured: IC50 (nM)

> print(dat)
                                 givensmiles  unitstext  val
 1  COc1cc(F)c2[nH]c(-c3c(C)nn(C)c3C)c(/C=C3/Oc4ccc(NC(=O)Nc5ccc(C(=O)N6CCOCC6)cc5)cc4C3=O)c2c1         nM  0.5
 2  COc1ccc2[nH]c(-c3c(C)nn(C)c3C)c(/C=C3/Oc4ccc(NC(=O)Nc5ccc(C(=O)N6CCOCC6)cc5)cc4C3=O)c2c1         nM  0.2
 3  COc1ccc2[nH]cc(/C=C3/Oc4ccc(NC(=O)Nc5ccc(C(=O)N6CCN(C)CC6)cc5)cc4C3=O)c2c1         nM  0.9
 4  COc1ccc2[nH]c(-c3c(C)nn(C)c3C)c(/C=C3/Oc4ccc(NC(=O)Nc5ccc(C(=O)N6CCN(C)CC6)cc5)cc4C3=O)c2c1         nM  0.2
 5  COc1cc(F)c2[nH]c(-c3c(C)nn(C)c3C)c(/C=C3/Oc4ccc(NC(=O)Nc5cccnc5)cc4C3=O)c2c1         nM    1
 6  COc1cc(F)c2[nH]c(-c3c(C)nn(C)c3C)c(/C=C3/Oc4ccc(NC(=O)Nc5ccc(C(=O)N(C)CCN(C)C)cc5)cc4C3=O)c2c1         nM  0.2
 7  COc1ccc2[nH]c(-c3c(C)nn(C)c3C)c(/C=C3/Oc4ccc(NC(=O)Nc5ccc(C(=O)N(C)CCN(C)C)cc5)cc4C3=O)c2c1         nM  0.3
 8  CNC(=O)Nc1ccc2c(c1)C(=O)/C(=C\c1c(-c3c(C)nn(C)c3C)[nH]c3ccc(OC)cc13)O2         nM  0.4
 9  COc1ccc2[nH]c(-c3c(C)nn(C)c3C)c(/C=C3/Oc4ccc(NC(=O)Nc5cccnc5)cc4C3=O)c2c1         nM  0.5
10  CNC(=O)Nc1ccc2c(c1)C(=O)/C(=C\c1c(-c3c(C)nn(C)c3C)[nH]c3c(F)cc(OC)cc13)O2         nM  0.4

---

# testDescription: Permeability from basolateral to apical side of the human Caco-2 membrane
# Assay type: ADME, cell-based
# experimentalConditions: read-out: permeability
parameterMeasured: Papp B→A (×10⁻⁶ cm/s)

> print(dat)
                                givensmiles  parametermeasured  val
1  COc1cc(F)c2[nH]c(-c3c(C)nn(C)c3C)c(/C=C3/Oc4ccc(NC(=O)Nc5ccc(C(=O)N(C)CCN(C)C)cc5)cc4C3=O)c2c1           Papp B→A  0.3

---

# System: Phosphatidylinositol 4,5-bisphosphate 3-kinase catalytic subunit alpha isoform (Homo sapiens), P42336 [E545K]
# Sequence (P42336 whole entry E545K, canonical isoform): as the sequence (P42336 whole entry, canonical isoform) above, with E545K counted along it
# testDescription: Inhibition of PI3Kalpha E545K mutant
parameterMeasured: IC50 (nM)

> print(dat)
                                givensmiles  parametermeasured  val
1  COc1cc(F)c2[nH]c(-c3c(C)nn(C)c3C)c(/C=C3/Oc4ccc(NC(=O)Nc5ccc(C(=O)N(C)CCN(C)C)cc5)cc4C3=O)c2c1               IC50  0.3

---

// Serine/threonine-protein kinase mTOR (Homo sapiens, UniProt P42345) pIC50 records
pIC50: −log10 of the molar value.
parameterMeasured: pIC50

> print(dat)
                                givensmiles                                systemname  modifiersign   val
1  COc1cc(F)c2[nH]c(-c3c(C)nn(C)c3C)c(/C=C3/Oc4ccc(NC(=O)Nc5ccc(C(=O)N6CCOCC6)cc5)cc4C3=O)c2c1  Serine/threonine-protein kinase mTOR (Homo sapiens, UniProt P42345)             =  8.60
2  CNC(=O)Nc1ccc2c(c1)C(=O)/C(=C\c1c(-c3c(C)nn(C)c3C)[nH]c3ccc(OC)cc13)O2  Serine/threonine-protein kinase mTOR (Homo sapiens, UniProt P42345)             =  8.89
3  COc1ccc2[nH]c(-c3c(C)nn(C)c3C)c(/C=C3/Oc4ccc(NC(=O)Nc5ccc(C(=O)N6CCOCC6)cc5)cc4C3=O)c2c1  Serine/threonine-protein kinase mTOR (Homo sapiens, UniProt P42345)             =  8.38
4  COc1ccc2[nH]c(-c3c(C)nn(C)c3C)c(/C=C3/Oc4ccc(NC(=O)Nc5cccnc5)cc4C3=O)c2c1  Serine/threonine-protein kinase mTOR (Homo sapiens, UniProt P42345)             =  8.28
5  CNC(=O)Nc1ccc2c(c1)C(=O)/C(=C\c1c(-c3c(C)nn(C)c3C)[nH]c3c(F)cc(OC)cc13)O2  Serine/threonine-protein kinase mTOR (Homo sapiens, UniProt P42345)             =  8.62
6  COc1ccc2[nH]cc(/C=C3/Oc4ccc(NC(=O)Nc5ccc(C(=O)N6CCN(C)CC6)cc5)cc4C3=O)c2c1  Serine/threonine-protein kinase mTOR (Homo sapiens, UniProt P42345)             <  5.40

---

# systemName: Phosphatidylinositol 4,5-bisphosphate 3-kinase catalytic subunit gamma isoform (Homo sapiens)
# Sequence (P48736 whole entry, canonical isoform): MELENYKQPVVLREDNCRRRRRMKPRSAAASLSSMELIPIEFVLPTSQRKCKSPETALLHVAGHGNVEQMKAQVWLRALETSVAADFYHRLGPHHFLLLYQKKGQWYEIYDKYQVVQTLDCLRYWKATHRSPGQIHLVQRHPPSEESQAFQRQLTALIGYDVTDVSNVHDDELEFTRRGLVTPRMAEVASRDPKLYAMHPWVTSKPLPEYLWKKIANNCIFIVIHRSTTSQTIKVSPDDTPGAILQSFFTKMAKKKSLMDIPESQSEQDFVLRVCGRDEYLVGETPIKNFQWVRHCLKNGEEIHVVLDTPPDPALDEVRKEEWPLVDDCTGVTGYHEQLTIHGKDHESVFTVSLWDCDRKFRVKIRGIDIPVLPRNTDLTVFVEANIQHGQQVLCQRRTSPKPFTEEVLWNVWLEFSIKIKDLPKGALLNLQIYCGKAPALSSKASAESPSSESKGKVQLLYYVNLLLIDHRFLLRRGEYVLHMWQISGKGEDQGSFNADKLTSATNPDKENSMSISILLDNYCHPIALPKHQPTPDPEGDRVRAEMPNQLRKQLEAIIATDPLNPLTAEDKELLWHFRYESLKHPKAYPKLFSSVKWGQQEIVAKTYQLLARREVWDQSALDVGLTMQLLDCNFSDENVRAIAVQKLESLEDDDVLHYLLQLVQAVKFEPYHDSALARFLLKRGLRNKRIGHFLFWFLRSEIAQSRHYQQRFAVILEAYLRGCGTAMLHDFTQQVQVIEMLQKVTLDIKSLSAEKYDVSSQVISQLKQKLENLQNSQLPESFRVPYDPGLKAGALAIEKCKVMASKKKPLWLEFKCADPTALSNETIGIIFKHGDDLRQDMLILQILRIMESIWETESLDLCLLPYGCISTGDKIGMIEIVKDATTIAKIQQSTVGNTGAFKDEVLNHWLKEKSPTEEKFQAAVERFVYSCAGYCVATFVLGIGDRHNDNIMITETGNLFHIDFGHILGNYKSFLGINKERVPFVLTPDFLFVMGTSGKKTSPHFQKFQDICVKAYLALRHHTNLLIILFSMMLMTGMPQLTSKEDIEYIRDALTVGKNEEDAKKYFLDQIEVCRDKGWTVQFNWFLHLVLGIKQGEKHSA
# testDescription: Inhibition of PI3gamma
pIC50: −log10 of the molar value.
parameterMeasured: pIC50

> print(dat)
                                givensmiles  parametermeasured   val
1  COc1cc(F)c2[nH]c(-c3c(C)nn(C)c3C)c(/C=C3/Oc4ccc(NC(=O)Nc5ccc(C(=O)N(C)CCN(C)C)cc5)cc4C3=O)c2c1              pIC50  8.62

---

# testDescription: Half life in mouse microsome
# Format: ADME
# experimentalConditions: microsomes
parameterMeasured: half-life

> print(dat)
                                givensmiles  parametermeasured       val
1  COc1cc(F)c2[nH]c(-c3c(C)nn(C)c3C)c(/C=C3/Oc4ccc(NC(=O)Nc5ccc(C(=O)N(C)CCN(C)C)cc5)cc4C3=O)c2c1          half-life  > 30 min

---

# testDescription: Permeability from apical to basolateral side of the human Caco-2 membrane
# Assay type: ADME, cell-based
# experimentalConditions: read-out: permeability
parameterMeasured: Papp A→B

> print(dat)
                                givensmiles             val
1  COc1cc(F)c2[nH]c(-c3c(C)nn(C)c3C)c(/C=C3/Oc4ccc(NC(=O)Nc5ccc(C(=O)N(C)CCN(C)C)cc5)cc4C3=O)c2c1  0.3 ×10⁻⁶ cm/s

---

# testDescription: Half life in human microsome
# Format: ADME
# experimentalConditions: microsomes
parameterMeasured: half-life

> print(dat)
                                givensmiles  parametermeasured       val
1  COc1cc(F)c2[nH]c(-c3c(C)nn(C)c3C)c(/C=C3/Oc4ccc(NC(=O)Nc5ccc(C(=O)N(C)CCN(C)C)cc5)cc4C3=O)c2c1          half-life  > 30 min
